Assayed target: Mcl-1 (Homo sapiens (Human), UniProt Q07820)
Sequence (Q07820 172-327): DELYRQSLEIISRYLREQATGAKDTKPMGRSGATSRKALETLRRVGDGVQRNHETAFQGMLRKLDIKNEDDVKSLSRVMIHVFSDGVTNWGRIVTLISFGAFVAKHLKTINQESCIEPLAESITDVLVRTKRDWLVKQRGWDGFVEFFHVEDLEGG
Protocol summary: TR-FRET binding assay, FITC-Bak peptide and MBP-tagged Mcl-1
Setup conditions: read-out: Ki for Inhibition of Mcl-1 by TR-FRET assay
Consider the following compounds and their measured Ki readings.
Result type: Ki (nM)

Compound	Result type	Censoring qualifier	Measured value
Cc1cc(N2C[C@@H](C)n3c(c(CCCOc4cc(C)c(Cl)c(C)c4)c4ccc(Cl)c(-c5c(C)nn(C)c5C)c43)C2=O)c2c(c1)cc1n2CCOC1=O	Ki	=	3.2
Cc1cc(OCCCc2c3n(c4c(-c5c(C)nn(C)c5C)c(Cl)ccc24)[C@H](C)CN(c2cn(C)c4ccc(C(=O)O)nc24)C3=O)cc(C)c1Cl	Ki	<	0.2
Cc1ccnc(Cn2cc(C(=O)O)c3cccc(N4C[C@@H](C)n5c(c(CCCOc6cc(C)c(Cl)c(C)c6)c6ccc(Cl)c(-c7c(C)nn(C)c7C)c65)C4=O)c32)c1 [Example 484]	Ki	<	0.2
COCCn1cc(N2C[C@@H](C)n3c(c(CCCOc4cc(C)c(Cl)c(C)c4)c4ccc(Cl)c(-c5c(C)nn(C)c5C)c43)C2=O)c2cc(-c3ncn(CCN4CCN(C)CC4)n3)ccc21	Ki	=	5.9
Cc1cc(OCCCc2c3n(c4c(-c5c(C)nn(C)c5C)c(Cl)ccc24)[C@H](C)CN(c2cc(NCCN(C)C)cc4c(C(=O)O)cn(C)c24)C3=O)cc(C)c1Cl	Ki	=	0.58

---

System: H929 human cancer cell lines
Protocol summary: Cellular viability / proliferation (Cell TiterGlo, 72 h)
Format: cell-based
Setup conditions: Homo sapiens, NCI-H929, 72 h, read-out: GI50 on cellular proliferation of H929 human cancer cell lines, H929 cells, 72 h, Cell TiterGlo, 10% FBS
GI50 strictly under 600 nM means y; at 600 nM or over means n.

Compound structure string	Class assignment
COCCn1c(C(=O)O)cc2c(OC)ccc(N3C[C@@H](C)n4c(c(CCCOc5cc(C)c(Cl)c(C)c5)c5ccc(Cl)c(-c6c(C)n[nH]c6C)c54)C3=O)c21	n
Cc1cc(OCCCc2c3n(c4c(-c5c(C)nn(C)c5C)c(Cl)ccc24)[C@H](C)CN(c2cccc4nn(C)c(C(=O)O)c24)C3=O)cc(C)c1Cl	n
COCCn1cc(C(=O)O)c2cccc(N3C[C@@H](C)n4c(c(CCCOc5cc(C)c(Cl)c(C)c5)c5ccc(Cl)c(-c6c(C)nn(C)c6C)c54)C3=O)c21	y
Cc1cc(N2C[C@@H](C)n3c(c(CCCOc4cc(C)c(Cl)c(C)c4)c4ccc(Cl)c(-c5c(C)nn(C)c5C)c43)C2=O)c2c(c1)c(C(=O)O)cn2C	y

---

Tested on: H929 human cancer cell lines
Protocol summary: Cellular viability / proliferation (Cell TiterGlo, 72 h)
Assay type: cell-based
Setup conditions: Homo sapiens, NCI-H929, 72 h, read-out: GI50 on cellular proliferation of H929 human cancer cell lines, H929 cells, 72 h, Cell TiterGlo, 10% FBS

Compound structure string	Censoring qualifier	GI50, nM
Cc1cc(OCCCc2c3n(c4c(-c5c(C)nn(C)c5C)c(Cl)ccc24)[C@H](C)CN(c2cccc4cc(C(=O)O)n(Cc5cscn5)c24)C3=O)cc(C)c1Cl	=	370
Cc1cc(OCCCc2c3n(c4c(-c5c(C)nn(C)c5C)c(Cl)ccc24)[C@H](C)CN(c2ccc(F)c4c(C(=O)O)c[nH]c24)C3=O)cc(C)c1Cl	=	2800
Cc1cc(OCCCc2c3n(c4c(-c5c(C)nn(C)c5C)c(Cl)ccc24)[C@H](C)CN(c2cc(OCc4ccccn4)cc4cc(C(=O)O)n(C)c24)C3=O)cc(C)c1Cl	=	240
Cc1cc(OCCCc2c3n(c4c(-c5c(C)nn(C)c5C)c(Cl)ccc24)[C@H](C)CN(c2cn(CCN4CCN(C)CC4)c4ccc(C(=O)O)cc24)C3=O)cc(C)c1Cl	=	470
Cc1cc(OCCCc2c3n(c4c(-c5c(C)ncnc5C)c(Cl)ccc24)[C@H](C)CN(c2cccc4c2c(C(=O)O)cn4C)C3=O)cc(C)c1Cl	=	2000
Cc1cc(OCCCc2c3n(c4c(-c5c(C)nn(C)c5C)c(Cl)ccc24)[C@H](C)CN(c2cn(C)c4c(C#N)cccc24)C3=O)cc(C)c1Cl	=	3500
C=C(C)c1ccnc(Cn2c(C(=O)O)cc3cc(C)cc(N4C[C@@H](C)n5c(c(CCCOc6cc(C)c(Cl)c(C)c6)c6ccc(Cl)c(-c7c(C)nn(C)c7C)c65)C4=O)c32)c1	=	350
Cc1cc(OCCCc2c3n(c4c(-c5c(C)ncnc5C)c(Cl)ccc24)[C@H](C)CN(c2cn(C)c4cnc(C(=O)O)cc24)C3=O)cc(C)c1Cl	=	8100
Cc1cc(OCCCc2c3n(c4c(-c5c(C)nn(C)c5C)c(Cl)ccc24)[C@H](C)CN(c2nccc4cc(C(N)=O)ccc24)C3=O)cc(C)c1Cl	=	2500
Cc1cc(N2C[C@@H](C)n3c(c(CCCOc4cc(C)c(Cl)c(C)c4)c4ccc(Cl)c(-c5c(C)nn(C)c5C)c43)C2=O)c2c(c1)cc(C(N)=O)n2C	=	670
Cc1cc(OCCCc2c3n(c4c(-c5c(C)nn(C)c5C)c(Cl)ccc24)[C@H](C)CN(c2c(C)ccc4cc(C(=O)O)n(C)c24)C3=O)cc(C)c1Cl	=	260
Cc1cc(OCCCc2c3n(c4c(-c5c(C)nn(C)c5C)c(Cl)ccc24)CCCN(c2nc(C(=O)O)n[nH]2)C3=O)cc(C)c1Cl	=	1800
COCCn1c(C(=O)O)cc2cc(C)cc(N3C[C@@H](C)n4c(c(CCCOc5cc(C)c(Cl)c(C)c5)c5ccc(Cl)c(-c6c(C)ncnc6C)c54)C3=O)c21	=	230
Cc1cc(OCCCc2c3n(c4c(-c5c(C)nn(C)c5C)c(Cl)ccc24)[C@H](C)CN(c2cc(OCc4ccccc4)cc4cc(C(=O)O)n(Cc5ccccn5)c24)C3=O)cc(C)c1Cl	=	1400
Cc1cc(OCCCc2c3n(c4c(-c5c(C)nn(C)c5C)c(Cl)ccc24)[C@H](C)CN(c2cn(C)c4cccc(C(=O)O)c24)C3=O)cc(C)c1Cl	=	790
COCCn1cc(N2C[C@@H](C)n3c(c(CCCOc4cc(C)c(Cl)c(C)c4)c4ccc(Cl)c(-c5c(C)nn(C)c5C)c43)C2=O)c2cc(-c3ncccn3)ccc21	=	610
Cc1cc(OCCCc2c3n(c4c(-c5c(C)nn(C)c5C)c(Cl)ccc24)[C@H](C)CN(c2ccc4cnoc4c2)C3=O)cc(C)c1Cl	=	5100
COCCn1c(C(=O)O)cc2cc(C)cc(N3C[C@@H](C)n4c(c(CCCOc5cc(C)c(Cl)c(C)c5)c5ccc(Cl)c(-c6c(C)nc(CN7CCOCC7)nc6C)c54)C3=O)c21	<	200
Cc1cc(OCCCc2c3n(c4c(-c5c(C)ncnc5C)c(Cl)ccc24)[C@H](C)CN(c2cccc4cc(C(N)=O)n(C)c24)C3=O)cc(C)c1Cl	=	910
Cc1cc(OCCCc2c3n(c4c(-c5c(C)nn(C)c5C)c(Cl)ccc24)[C@H](C)CN(c2cc(Cl)cc4c(C(=O)O)cn(C)c24)C3=O)cc(C)c1Cl	=	1200
Cc1cc(OCCCc2c3n(c4c(-c5c(C)nc(CN6CCN(C)C(=O)C6)nc5C)c(Cl)ccc24)[C@H](C)CN(c2cn(C)c4ccc(-c5ncn(C)n5)cc24)C3=O)cc(C)c1Cl	<	200
Cc1cc(OCCCc2c3n(c4c(-c5c(C)nn(C)c5C)c(Cl)ccc24)[C@H](C)CN(c2ccc4c(C(=O)O)cn(C)c4c2)C3=O)cc(C)c1Cl	=	1500

---

Assayed target: Mcl-1 (Homo sapiens (Human), UniProt Q07820)
Protocol summary: Fluorescence polarization anisotropy (FPA) competition assay, FITC-Bak or FITC-Bim BH3 peptide
Assay type: binding
Setup conditions: read-out: Ki for Inhibition of Mcl-1 by FPA assay
pKi: −log10 of the molar value.
Listing: pKi of selected compounds

Compound	Censoring qualifier	pKi
Cc1cc(OCCCc2c3n(c4c(-c5c(C)nn(C)c5C)c(Cl)ccc24)[C@H](C)CN(c2cn(C)c4ccc(S(=O)(=O)N5CCNCC5)cc24)C3=O)cc(C)c1Cl [Example 265]	=	8.09
Cc1cc(OCCCc2c3n(c4c(-c5c(C)nn(C)c5C)c(Cl)ccc24)[C@H](C)CN(c2cc(C(=O)O)c4ccccc4c2)C3=O)cc(C)c1Cl [Example 188]	=	8.19
Cc1cc(OCCCc2c3n(c4c(-c5c(C)nc(CN6CCC(O)C6)nc5C)c(Cl)ccc24)[C@H](C)CN(c2cn(C)c4ccc(C(=O)O)cc24)C3=O)cc(C)c1Cl (some centres unmarked) [Example 397]	=	8.92
Cc1cc(CCCCc2c(C(=O)N3CCN(c4cncc(C(=O)O)c4)CC3)[nH]c3c(-c4c(C)nn(C)c4C)c(Cl)ccc23)cc(C)c1Cl [Example 740]	=	7.07
Cc1cc(OCCCc2c3n(c4c(-c5c(C)nn(C)c5C)c(Cl)ccc24)[C@H](C)CN(c2cn4cccc(C(=O)O)c4n2)C3=O)cc(C)c1Cl [Example 112]	=	8.48
CCn1cc(N2C[C@@H](C)n3c(c(CCCOc4cc(C)c(Cl)c(C)c4)c4ccc(Cl)c(-c5c(C)nn(C)c5C)c43)C2=O)c2cccc(C(=O)O)c21 [Example 83]	>	9.00
Cc1cc(OCCCc2c3n(c4c(-c5c(C)nn(C)c5C)c(Cl)ccc24)[C@H](C)CN(c2cc4c(C(=O)O)cccc4n2C)C3=O)cc(C)c1Cl [Example 170]	=	8.57
COCCn1c(C(=O)O)cc2c(N3C[C@@H](C)n4c(c(CCCOc5cc(C)c(Cl)c(C)c5)c5ccc(Cl)c(-c6c(C)nn(C)c6C)c54)C3=O)cccc21 [Example 353]	=	8.68
Cc1cc(OCCCc2c3n(c4c(-c5c(C)nn(C)c5C)c(Cl)ccc24)[C@H](C)CN(c2ccc4c(C(=O)O)cn(C)c4c2)C3=O)cc(C)c1Cl [Example 79]	>	9.00
COc1cc(N2C[C@@H](C)n3c(c(CCCOc4cc(C)c(Cl)c(C)c4)c4ccc(Cl)c(-c5c(C)nn(C)c5C)c43)C2=O)c2c(c1)cc(C(=O)O)n2C [Example 342]	>	9.00
Cc1cc(OCCCc2c3n(c4c(-c5c(C)nn(C)c5C)c(Cl)ccc24)[C@H](C)CN(c2cn(C)c4cc(C(=O)O)ccc24)C3=O)cc(C)c1Cl [Example 88]	>	9.00
